Tested on: P388 leukemia ip, CD2F1 mice, survival T/C
Assay: NCI In Vivo Anticancer Drug Screen. Data for tumor model P388 Leukemia (intraperitoneal) in CD2F1 (CDF1) mice
Settings: endpoint: median survival time; dose: 100.0 mg/kg/injection; schedule: Q04DX002 (ip); vehicle: saline; higher = longer survival
Protocol: The antitumor activity of compounds was measured in mice bearing transplantable tumors. Survival or tumor size were measured and the results are expressed as the measurement made in the treated group (T) divided by the measurement made in the vehicle treated control group (C). The tumor model used in this assay is P388 Leukemia (intraperitoneal) in CD2F1 (CDF1) mice
Toxic doses and inconclusive results are not listed.
Readout Label: T/C

Bench note: what T/C did Clc1nc(-c2ccccc2)nc(-c2ccccc2)n1 show?
104 % of control

Bench note: what T/C did COC(=O)c1c[nH]c(=S)n1C show?
98 % of control

Bench note: what T/C did O=C(CCS(=O)O)c1ccccc1 show?
101 % of control

Bench note: what T/C did CCCN1C(=O)CC(=O)N(CCC)P1(=O)OCC show?
101 % of control

Bench note: what T/C did O=C(O)/C=C\S(=O)(=O)O show?
93 % of control

Bench note: what T/C did CN(C)CCCNC1C(C2COC(C)(C)O2)OC2OC(C)(C)OC21 (stereo not drawn) show?
97 % of control

Bench note: what T/C did CC1(C)C[C@H](O)[C@H]2O[C@@]2(C)C1 show?
95 % of control

Bench note: what T/C did C=Cc1c2[n-]c(c1C)/C=c1\[n-]/c(c(C)c1C=C)=C\c1[n-]c(c(CCC(=O)O)c1C)/C=c1\[n-]/c(c(C)c1CCC(=O)O)=C\2.[Pt+4] show?
100 % of control

* * *

test system: P388 leukemia ip, CD2F1 mice, survival T/C; assay: NCI In Vivo Anticancer Drug Screen. Data for tumor model P388 Leukemia (intraperitoneal) in CD2F1 (CDF1) mice; details: endpoint: median survival time; dose: 240.0 mg/kg/injection; schedule: Q01DX005 (ip); vehicle: saline with Tween-80; higher = longer survival
Inconclusive results and toxic doses are left out.
Readout Label: T/C

Form field: T/C recorded for O=C(Cc1ccc2c(c1)OCO2)c1ccc(O)cc1O with P388 leukemia ip, CD2F1 mice, survival T/C (enter value)
98 % of control

Form field: T/C recorded for Cc1ccc(N2C(=O)C(C)SC23C(=O)Nc2ccc(Cl)cc23)cc1 (centres undefined) with P388 leukemia ip, CD2F1 mice, survival T/C (enter value)
100 % of control

Form field: T/C recorded for COC(=O)C(C)CC(C)(CC(C)(CC(C)(C)C(=O)OC)C(=O)OC)C(=O)OC (centres undefined) (tested in a mixture with another compound) with P388 leukemia ip, CD2F1 mice, survival T/C (enter value)
100 % of control

Form field: T/C recorded for Cc1ccc(C)n1N1CCOCC1 with P388 leukemia ip, CD2F1 mice, survival T/C (enter value)
100 % of control

Form field: T/C recorded for N#CC(C(=O)C(N)=O)c1ccc(Cl)cc1Cl (centres undefined) with P388 leukemia ip, CD2F1 mice, survival T/C (enter value)
100 % of control

Form field: T/C recorded for O=C1OC2CC13Cc1ccccc1C3(C(=O)O)CC2I (centres undefined) with P388 leukemia ip, CD2F1 mice, survival T/C (enter value)
100 % of control

Form field: T/C recorded for O=C(CCC(=O)Nc1ccccc1[N+](=O)[O-])CC(=O)c1ccc(Br)cc1 with P388 leukemia ip, CD2F1 mice, survival T/C (enter value)
106 % of control

Form field: T/C recorded for CC1(C)OC2OC(C3COS(=O)O3)C(Cl)C2O1 (centres undefined) with P388 leukemia ip, CD2F1 mice, survival T/C (enter value)
114 % of control

Form field: T/C recorded for COc1ccc2nc(-c3ccccc3)cc(N=[N+]=[N-])c2c1 with P388 leukemia ip, CD2F1 mice, survival T/C (enter value)
102 % of control

* * *

tested on: P388 leukemia ip, CD2F1 mice, survival T/C; experiment: NCI In Vivo Anticancer Drug Screen. Data for tumor model P388 Leukemia (intraperitoneal) in CD2F1 (CDF1) mice; settings: endpoint: median survival time; dose: 30.0 mg/kg/injection; schedule: Q01DX005 (ip); vehicle: saline with Tween-80; higher = longer survival
Toxic doses and inconclusive results are not listed.
Readout Label: T/C

Bench note: what T/C did N#Cc1ncn(Cc2ccccc2)c1N show?
101 % of control

Bench note: what T/C did O=C(Nc1cc(Cl)c(Cl)cc1Cl)OCc1ccc2c(c1)OCO2 show?
94 % of control

Bench note: what T/C did O=C(NC(Cc1ccc(O)cc1)C(=O)N=Nc1c(O)[nH]c2ccccc12)c1ccccc1 (configuration not stated) show?
90 % of control

Bench note: what T/C did CCOc1ccc(-n2cnc3c(=O)[nH]c(N)nc32)cc1 show?
91 % of control

Bench note: what T/C did CC12CC3CC(C)(C1)CC(SC(=N)N)(C3)C2 show?
106 % of control

Bench note: what T/C did COC(=O)c1cc2cc3ccccc3cc2cc1C(=O)OC show?
101 % of control

Bench note: what T/C did Cc1cc(-c2c(C)[nH]n(-c3nc4ccc(F)cc4s3)c2=O)n(-c2nc3ccc(F)cc3s2)n1 show?
95 % of control

* * *

test system: P388 leukemia ip, CD2F1 mice, survival T/C; assay: NCI In Vivo Anticancer Drug Screen. Data for tumor model P388 Leukemia (intraperitoneal) in CD2F1 (CDF1) mice; conditions: endpoint: median survival time; dose: 25.0 mg/kg/injection; schedule: Q01DX009 (ip); vehicle: saline; higher = longer survival
Inconclusive results and toxic doses are left out.
Provide the reported T/C of each item.

Bench note: what T/C did CC(C)(C)C(=O)C=C(C(F)(F)F)C(F)(F)F show?
113 % of control

Bench note: what T/C did Cc1cc(OC(=O)Nc2cc([N+](=O)[O-])ccc2C)c(Br)cc1Cl show?
93 % of control

Bench note: what T/C did N#Cc1sc(=S)n(-c2ccccc2)c1N show?
107 % of control

Bench note: what T/C did C=COC(=O)N(C)C show?
110 % of control

Bench note: what T/C did CN(C)C(=O)C[n+]1ccccc1 show?
98 % of control

Bench note: what T/C did O=[N+]([O-])c1c(O)c(CNCCCO)cc(CNCCCO)c1O show?
113 % of control

Bench note: what T/C did O=[N+]([O-])c1c(Sc2ncccn2)ncnc1Sc1ncccn1 show?
114 % of control

Bench note: what T/C did O=S(=O)(O)c1ccc2cccc(N=Nc3c(O)ccc4ccccc34)c2c1 show?
101 % of control

Bench note: what T/C did CC(N)C(=O)NC(C(=O)O)C(C)O (configuration not stated) show?
100 % of control

Bench note: what T/C did O=C(O)C1(C(=O)O)CCC1.[NH2-].[NH2-].[Pt+2] show?
152 % of control

Bench note: what T/C did N=C=S.O=NO.O=N[O-].[Co+3].[NH-]CC[NH-].[NH-]CC[NH-] show?
113 % of control

Bench note: what T/C did CSC(SC)=C1C(=O)NC(=O)NC1=O show?
124 % of control

Bench note: what T/C did CCOC(=O)CC(=O)c1ccc(Cl)cc1 show?
100 % of control

Bench note: what T/C did CCCCCCCCCCCC[N+]1([O-])CCCCCC1 show?
100 % of control

Bench note: what T/C did C[N+]1(C)Cc2ccccc2C1 show?
108 % of control

Bench note: what T/C did CCOC(=O)CSc1ccc(C)cc1 show?
105 % of control

Bench note: what T/C did CCOS(=O)(=O)c1ccc([N+](=O)[O-])cc1 show?
100 % of control

Bench note: what T/C did Oc1c(CN2CCCC2)cc(Nc2nccc(/C=C/c3ccc(Cl)cc3)n2)cc1CN1CCCC1 show?
110 % of control

Bench note: what T/C did CCNc1snc2c1c(=O)[nH]c(=O)n2Cc1ccccc1 show?
90 % of control

Bench note: what T/C did c1ccc(CSc2ncnc3n[nH]nc23)cc1 show?
100 % of control

Bench note: what T/C did CCC(=O)NC(CC(=O)O)c1cccs1 (configuration not stated) show?
104 % of control

Bench note: what T/C did S=P1(c2ccccc2)C=C(N2CCCC2)CC1 (configuration not stated) show?
110 % of control

* * *

tested on: P388 leukemia ip, CD2F1 mice, survival T/C; experiment: NCI In Vivo Anticancer Drug Screen. Data for tumor model P388 Leukemia (intraperitoneal) in CD2F1 (CDF1) mice; details: endpoint: median survival time; dose: 30.0 mg/kg/injection; schedule: Q01DX005 (ip); vehicle: Klucel (hydroxypropylcellulose) (HPC); higher = longer survival
Toxic doses and inconclusive results are not listed.
Provide the reported T/C of each item.

Bench note: what T/C did COc1c2occc2c(CCl)c2ccc(=O)oc12 show?
111 % of control

Bench note: what T/C did Cc1c(C)c(C)c(C(=O)c2ccccc2C(=O)NCCSC(C)(C)C)c(C)c1C show?
98 % of control

Bench note: what T/C did CC(=O)OC1CC2C3(C)CCC4C(C)(C)CCCC4(C)C3CC(O)C2(C)C2C1=COC2OC(C)=O (configuration not stated) show?
120 % of control

Bench note: what T/C did Cc1ccc(NC(=O)OCCN(C)C(=O)Nc2ccc(C)cc2C)c(C)c1 show?
98 % of control

Bench note: what T/C did Nc1ccc(S(=O)(=O)Nc2c(N)[nH]c(=S)[nH]c2=O)cc1 show?
97 % of control

Bench note: what T/C did COc1cc2c3c(c1OC)C=C[C@@H]1CCCN(CC2)[C@H]31 show?
101 % of control

Bench note: what T/C did Cc1cc(NS(=O)(=O)c2ccc(NC(=O)NCCCl)cc2)no1 show?
99 % of control

// data source = PubChem BioAssay AID330
